From: PubChem BioAssay AID485297

Assay: qHTS Assay for Rab9 Promoter Activators; further: nearly all actives have a fitted effect of over 60% in size
Details: Huh7 Rab9 promoter-luciferase reporter, luminescence, 24 h; series mostly up to 9.22 µM
Hit rate of the full screen: of about 320,000 compounds, about 9,100 (2.8%) were called active. Inconclusive results (about 3%) are left out. The call rests on the fitted dose curve; in most records, active means well fitted activation curve with a large enough effect; inconclusive means small, poorly fitted or top-dose-only effect; inactive means no such curve, though single readings can be large or run the other way. What follows is part of a selection rich in actives, with near analogues and random picks from the rest.
Give one outcome, nothing more. List: active, inactive

Called result for O=C(CCNS(=O)(=O)c1ccc(Br)cc1)NCC1CCCO1 (stereo unspecified)
inactive

Called result for CCCCCN(C(=O)CCC(=O)OCC(=O)NCc1ccc(OC)cc1)c1c(N)n(CCCC)c(=O)[nH]c1=O
inactive

Called result for COc1ccc(-c2nnc3n2CCCCC3)cc1
inactive

Called result for COc1ccc(-c2nc3n(c2Br)CCC3)cc1
active

Called result for COCCN(C(=O)CC1CCCCC1)c1c(N)n(CC(C)C)c(=O)[nH]c1=O
inactive

Called result for CCC(=O)c1ccc(OCC(=O)OCC(=O)N2CCc3ccccc3C2)cc1
inactive

Called result for Cc1ccccc1OCCC(=O)OCC(=O)NCCc1ccc(S(N)(=O)=O)cc1
inactive

Called result for CC1CCCC(NC(=O)c2cc(-c3ccncc3)nc3ccccc23)C1C (stereo unspecified)
inactive

Called result for COc1ccc(-c2nc(SCC(=O)N3CCCC3)n[nH]2)cc1
inactive

Called result for CC(C)c1ccc(S(=O)(=O)N2CCN(C(C)C(=O)NC3CCCC3)CC2)cc1 (stereo unspecified)
inactive

Called result for Cc1ccc(NC(=O)Cn2c(C)csc2=O)cc1
inactive
